endpoint label: melting point

Data request, read-out melting point, for CCOc1ccc(OCC(C)(NS(=O)(=O)Cc2ccccc2)C(=O)N2CCOCC2)cc1 (stereo not drawn)
109 to 111 °C

Try O/N=C(\Sc1ccccc1)C(F)(F)F next.
64 to 66 °C

Try CCC(C)S(=O)(=O)NN(CCC(=O)O)C(=O)c1ccc2nc(CCC3CCNCC3)[nH]c2c1 (stereo not drawn) next.
180 to 185 °C

Try O=c1[nH]c(=O)n2c3c1cnn3C(c1cccc(C(F)(F)F)c1)CC2 (stereo not drawn) next.
297 to 300 °C

Try CCOC(=O)c1cn(C(c2ccccc2)(c2ccccc2)c2ccccc2)cn1 next.
163 to 164 °C

Try CCCNC(=O)c1ccc(CCN2CC=C(c3c[nH]c(-c4ccc(F)cc4)c3-c3ccncc3)CC2)cc1 next.
227 to 230 °C

Try CC(C)C(C(=O)O)c1ccc2sccc2c1 (stereo not drawn) next.
150 to 151 °C

Try CC(=O)OC1CCC2(C)C(=CCC3C2CCC2(C)C(c4cccnc4)=CCC32)C1 (stereo not drawn) next.
144 to 145 °C

Try Cc1nnc(-c2ccc3occ(-c4ccc(SC(F)(F)F)cc4)c3c2)o1 next.
170 to 171 °C

Try O=C(N[C@H](Cc1ccc(C(F)(F)F)cc1)[C@@H](O)c1ccc(F)cc1)c1cccc(Cl)c1Cl (racemic) next.
187 to 188 °C

Try CCCCOc1ccc2cc(O)ccc2c1 next.
100 to 102 °C

Try CC(=O)NCC1CN(c2ccc(N3CCN(c4nnc(C)s4)CC3)c(F)c2)C(=O)O1 (stereo not drawn) next.
247 to 249 °C

Try CCCCN(Cc1ccc(C#N)cc1Cl)c1c(NC(C)(C)C)c(=O)c1=O next.
133 to 134 °C

Try NC(=O)Cc1cc(Oc2ccc3c(ccn3C(=O)Nc3ccc(N4CCN(C5CC5)CC4)c(C(F)(F)F)c3)c2)ncn1 next.
236 to 240 °C

Try COCC1(C)CCCSc2cc(C#Cc3ccc(C(=O)O)cc3)ccc21 (stereo not drawn) next.
182 to 183 °C

Try O=C(O)[C@H](Cc1ccccc1)NC(=O)[C@@H]1CCCN1S(=O)(=O)c1ccc([N+](=O)[O-])cc1 next.
70 to 80 °C

Try CCCC(=O)c1c(CC)nc2c(-c3ccc(Cl)cc3Cl)nccn12 next.
159 to 160 °C

Try COc1ccc(CNc2c3c(nc4ccccc24)CCCC3O)cc1 (stereo not drawn) next.
163 to 165 °C

Try COC(=O)c1sc(C)c(Cl)c1O next.
105 to 107 °C

Try O=S1CCc2n[nH]c(CCCN3CCN(c4ccc(F)cc4)CC3)c2C1 (stereo not drawn) next.
140 to 142 °C

Try COc1ccc(-c2c(C(=O)CC(C)C)c(CBr)nc3cc(OC)c(OC)cc23)cc1OC next.
159 to 161 °C

Try CCCCn1c(=O)cnn(-c2ccc(N3CCN(c4ccc(O)cc4)CC3)cc2)c1=O next.
202 °C

Try CNN1C(=O)CSC1=Cc1cc(C(C)(C)C)c(O)c(C(C)(C)C)c1 next.
151 to 154 °C

Try C=C(Cl)Cn1c(C)c(C)c2cnnc(OCc3ccccc3)c21 next.
88 to 90 °C

Try Nc1ncnc2c1ncn2[C@H]1C=C[C@@H](O)C1 (racemic) next.
180 °C

Try CON=C(C(=O)O)c1nsc(NC=O)n1 next.
185 to 186 °C

Try CC(C)(COC(=O)CCC(=O)O)Oc1ccc2c(c1)CCc1c-2ccc2c1CCC2(C)C next.
118 to 120 °C

Try CS(=O)(=O)Nc1cc(C(c2cc(F)ccc2F)S(=O)(=O)c2ccc(Cl)cc2)c(Cl)cn1 (stereo not drawn) next.
220 to 222 °C
